System: Pseudomonas aeruginosa
PROCEDURE DETAILS: Ratio of compound IZ to amikacin IZ for Pseudomonas aeruginosa […] at 10 ug/ml by disk diffusion method
Format: functional
MEASUREMENT TYPE: Ratio
// return a plain number; no unit text

# input Hello, I am looking for reported Ratio with Pseudomonas aeruginosa for CCOC(=O)C1C(c2ccco2)N(N=O)C(c2ccco2)C(C(=O)OCC)S1(=O)=O (stereo not drawn) . Could you help?
# output 0.59

# input Hello, I am looking for reported Ratio with Pseudomonas aeruginosa for CCOC(=O)C1C(c2cccnc2)N(N=O)C(c2cccnc2)C(C(=O)OCC)S1(=O)=O (stereo not drawn) . Could you help?
# output 0.65

# input Hello, I am looking for reported Ratio with Pseudomonas aeruginosa for CCOC(=O)C1C(c2ccc(C)cc2)N(N=O)C(c2ccc(C)cc2)C(C(=O)OCC)S1(=O)=O (stereo not drawn) . Could you help?
# output 0.53

# input Hello, I am looking for reported Ratio with Pseudomonas aeruginosa for CCOC(=O)C1C(c2ccc([N+](=O)[O-])cc2)N(N=O)C(c2ccc([N+](=O)[O-])cc2)C(C(=O)OCC)S1(=O)=O (stereo not drawn) . Could you help?
# output 0.65

# input Hello, I am looking for reported Ratio with Pseudomonas aeruginosa for CCOC(=O)C1C(c2ccccn2)N(N=O)C(c2ccccn2)C(C(=O)OCC)S1(=O)=O (stereo not drawn) . Could you help?
# output 0.53

# input Hello, I am looking for reported Ratio with Pseudomonas aeruginosa for CCOC(=O)C1C(c2cccc(Cl)c2)N(N=O)C(c2cccc(Cl)c2)C(C(=O)OCC)S1(=O)=O (stereo not drawn) . Could you help?
# output 0.59

# input Hello, I am looking for reported Ratio with Pseudomonas aeruginosa for CCOC(=O)C1C(c2ccsc2)N(N=O)C(c2ccsc2)C(C(=O)OCC)S1(=O)=O (stereo not drawn) . Could you help?
# output 0.76

# input Hello, I am looking for reported Ratio with Pseudomonas aeruginosa for CCOC(=O)C1C(c2cc3ccccc3nc2Cl)N(N=O)C(c2cc3ccccc3nc2Cl)C(C(=O)OCC)S1(=O)=O (stereo not drawn) . Could you help?
# output 0.59

# input Hello, I am looking for reported Ratio with Pseudomonas aeruginosa for CCOC(=O)C1C(c2cccc([N+](=O)[O-])c2)N(N=O)C(c2cccc([N+](=O)[O-])c2)C(C(=O)OCC)S1(=O)=O (stereo not drawn) . Could you help?
# output 0.88

# input Hello, I am looking for reported Ratio with Pseudomonas aeruginosa for CCOC(=O)C1C(c2ccccc2Cl)N(N=O)C(c2ccccc2Cl)C(C(=O)OCC)S1(=O)=O (stereo not drawn) . Could you help?
# output 0.71

# input Hello, I am looking for reported Ratio with Pseudomonas aeruginosa for CCOC(=O)C1C(c2c[nH]c3ccccc23)N(N=O)C(c2c[nH]c3ccccc23)C(C(=O)OCC)S1(=O)=O (stereo not drawn) . Could you help?
# output 0.65

# input Hello, I am looking for reported Ratio with Pseudomonas aeruginosa for CCOC(=O)C1C(c2ccc3c(c2)OCO3)N(N=O)C(c2ccc3c(c2)OCO3)C(C(=O)OCC)S1(=O)=O (stereo not drawn) . Could you help?
# output 0.71

# input Hello, I am looking for reported Ratio with Pseudomonas aeruginosa for CCOC(=O)C1C(c2ccc[nH]2)N(N=O)C(c2ccc[nH]2)C(C(=O)OCC)S1(=O)=O (stereo not drawn) . Could you help?
# output 0.71

# input Hello, I am looking for reported Ratio with Pseudomonas aeruginosa for CCOC(=O)C1C(c2cccs2)N(N=O)C(c2cccs2)C(C(=O)OCC)S1(=O)=O (stereo not drawn) . Could you help?
# output 0.82

# input Hello, I am looking for reported Ratio with Pseudomonas aeruginosa for CCOC(=O)C1C(c2ccc(OC)cc2)N(N=O)C(c2ccc(OC)cc2)C(C(=O)OCC)S1(=O)=O (stereo not drawn) . Could you help?
# output 1.11

# input Hello, I am looking for reported Ratio with Pseudomonas aeruginosa for CCOC(=O)C1C(c2ccc(OC)c(OC)c2)N(N=O)C(c2ccc(OC)c(OC)c2)C(C(=O)OCC)S1(=O)=O (stereo not drawn) . Could you help?
# output 0.65

# input Hello, I am looking for reported Ratio with Pseudomonas aeruginosa for CCOC(=O)C1C(c2ccc(Cl)cc2)N(N=O)C(c2ccc(Cl)cc2)C(C(=O)OCC)S1(=O)=O (stereo not drawn) . Could you help?
# output 0.71

# input Hello, I am looking for reported Ratio with Pseudomonas aeruginosa for CCOC(=O)C1C(c2ccccc2)N(N=O)C(c2ccccc2)C(C(=O)OCC)S1(=O)=O (stereo not drawn) . Could you help?
# output 0.76

----------
Tested on: Staphylococcus aureus
PROCEDURE DETAILS: Ratio of compound IZ to amikacin IZ for Staphylococcus aureus MTCC 96 at 10 ug/ml by disk diffusion method
Assay type: functional
Please go through the items and note down their Ratio.
// return a plain number; no unit text

# input Hello, I am looking for reported Ratio with Staphylococcus aureus for CCOC(=O)C1C(c2ccco2)N(N=O)C(c2ccco2)C(C(=O)OCC)S1(=O)=O (stereo unspecified) . Could you help?
# output 0.67

# input Hello, I am looking for reported Ratio with Staphylococcus aureus for CCOC(=O)C1C(c2ccc(OC)c(OC)c2)N(N=O)C(c2ccc(OC)c(OC)c2)C(C(=O)OCC)S1(=O)=O (stereo unspecified) . Could you help?
# output 0.67

# input Hello, I am looking for reported Ratio with Staphylococcus aureus for CCOC(=O)C1C(c2ccccn2)N(N=O)C(c2ccccn2)C(C(=O)OCC)S1(=O)=O (stereo unspecified) . Could you help?
# output 0.72

# input Hello, I am looking for reported Ratio with Staphylococcus aureus for CCOC(=O)C1C(c2ccc3c(c2)OCO3)N(N=O)C(c2ccc3c(c2)OCO3)C(C(=O)OCC)S1(=O)=O (stereo unspecified) . Could you help?
# output 0.5

# input Hello, I am looking for reported Ratio with Staphylococcus aureus for CCOC(=O)C1C(c2ccc(C)cc2)N(N=O)C(c2ccc(C)cc2)C(C(=O)OCC)S1(=O)=O (stereo unspecified) . Could you help?
# output 0.61

# input Hello, I am looking for reported Ratio with Staphylococcus aureus for CCOC(=O)C1C(c2c[nH]c3ccccc23)N(N=O)C(c2c[nH]c3ccccc23)C(C(=O)OCC)S1(=O)=O (stereo unspecified) . Could you help?
# output 0.44
